Each item that follows carries a reported EC50 (read off the curve).
Target: T1, human CCL20 anchored via a His-tag (human, UniProt P78556 27-96)
T1 construct: Construct not described; also called His-tag anchored CCL20; not shown: His-tag
T1 sequence (P78556 27-96 limits assumed): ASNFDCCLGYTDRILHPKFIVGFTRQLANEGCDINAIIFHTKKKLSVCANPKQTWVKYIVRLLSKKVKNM
Experiment: ELISA on His-tag anchored human CCL20, antibody titrated (x axis 'Ab conc. (ug/ml)', falling from left to right), Abs 450

Take a look at these entries with their results.
binder="humanized anti-human CCL20 antibody 36LC3/36HC2 (antibody, human IgG1, kappa, V domains shown, expressed in HEK293 cells; also called HC2/LC3; HC2LC3) VH: QVQLVQSGAEVKKPGASVKVSCKASGYTFTNYWMHWVRQAPGQGLEWMGVIDPSDSYTTYAQKFQGRVTMTVDTSTSTVYMELSSLRSEDTAVYYCARGNYGVDYAMDYWGQGTLVTVSS VL: DIQMTQSPSSLSASVGDRVTITCRASENIYGALNWYQQKPGKAPKLLIYGATNLADGVPSRFSGSGSGRQYSLTISSLQPEDFATYYCQNVLITPYTFGGGTKLEIKR" result="~6 ng/mL"
binder="chimeric 36F7C10 antibody (36F7C10-hFc) (antibody, V domains shown, also called chimeric 36F710; Chimeric MAb) VH: QVQLQQPGAELVKPGASVKMSCKASGYTFTNYWMHWVKQRPGQGLEWIGVIDPSDSYTTYNQKFKGKATLTVDTSSSTAYMQLSSLTSEDSAVYYCTRGNYGVDYAMDYWGQGTSVTVSS VL: DIQMTQSPASLSASVGETVTITCGASENIYGALNWYQRKQGKSPQLLIYGATNLADGMSSRFSGSGSGRQYSLKISSLHPDDVATYYCQNVLITPYTFGGGTKLEIK" result="~8 ng/mL"
binder="humanized anti-human CCL20 antibody 36LK3/36HC2 (antibody, human IgG1, kappa, V domains shown, expressed in HEK293 cells; also called HC2/LK3; HC2LK3) VH: QVQLVQSGAEVKKPGASVKVSCKASGYTFTNYWMHWVRQAPGQGLEWMGVIDPSDSYTTYAQKFQGRVTMTVDTSTSTVYMELSSLRSEDTAVYYCARGNYGVDYAMDYWGQGTLVTVSS VL: DIQMTQSPSSLSASVGDRVTITCGASENIYGALNWYQRKPGKAPKLLIYGATNLADGVPSRFSGSGSGRDYTLTISSLQPEDFATYYCQNVLITPYTFGQGTKLEIKR" result="~6 ng/mL"

--- query ---
Item: mouse anti-human CCL20 monoclonal antibody 36F7C10 (antibody, V domains shown, Mouse hybridoma antibody; also called MouseMAb; parental mouse clone 36F7C10) VH: QVQLQQPGAELVKPGASVKMSCKASGYTFTNYWMHWVKQRPGQGLEWIGVIDPSDSYTTYNQKFKGKATLTVDTSSSTAYMQLSSLTSEDSAVYYCTRGNYGVDYAMDYWGQGTSVTVSS VL: DIQMTQSPASLSASVGETVTITCGASENIYGALNWYQRKQGKSPQLLIYGATNLADGMSSRFSGSGSGRQYSLKISSLHPDDVATYYCQNVLITPYTFGGGTKLEIK | EC50 (read off the curve): ~5 ng/mL

src = patent US20160046707A1
